# Measured Target: U2AF65 1,2 (RRM1-RRM2, wild-type linker) (Homo sapiens, UniProt P26368 148-336)
# Sequence (P26368 148-336, one chain of several): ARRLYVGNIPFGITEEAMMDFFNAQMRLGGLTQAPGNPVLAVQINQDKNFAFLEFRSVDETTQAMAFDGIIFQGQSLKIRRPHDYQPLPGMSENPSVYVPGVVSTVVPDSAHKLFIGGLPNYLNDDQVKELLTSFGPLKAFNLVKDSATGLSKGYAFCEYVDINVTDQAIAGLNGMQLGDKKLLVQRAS
# Assay Name: SPR
pKd: −log10 of the molar value.

| Binder | pKd |
| --- | --- |
| CCUUUUCCCCCCC (ssRNA) [5'-4rU] | 4.84 |
| CCUCUCUUCCCCC (ssRNA) [rU(3)C(4,6,9,10,11)] | 4.84 |
| CCCCCUUCUCUCC (ssRNA) [rC(4,5,8,10)] | 4.55 |
| CCCCCCCCUUUCC (ssRNA) [3'-3rU] | 4.05 |
| CCCCCCUUUUUCC (ssRNA) [3'-5rU] | 4.34 |
| CCCUUUCUUUUCC (ssRNA) [rC(7)] | 5.03 |
| CCCCCCCUUUUCC (ssRNA) [3'-4rU] | 4.16 |
| CCCUUUUUUCUCC (ssRNA) [rC(10)] | 4.92 |
| CCCUUUCUCUUCC (ssRNA) [rC(7,9)] | 4.96 |
| CCCUUUCUUCUCC (ssRNA) [rC(7,10)] | 4.84 |
| CCUUUCCCCCCCC (ssRNA) [5'-3rU] | 4.66 |
| CCUUUUUCCCCCC (ssRNA) [5'-5rU] | 4.84 |
| CCCUCUUUUUUCC (ssRNA) [rC(5)] | 4.86 |
| CCCUUUCUCCUCC (ssRNA) [rC(7,9,10)] | 4.94 |
| CCCUUUUUCUUCC (ssRNA) [rC(9)] | 4.86 |
| UUUUUUUUUUUUU (ssRNA) [rU13] | 4.88 |

Entry source: paper PMC3616741
